B1: HEEH_KT_rd6_0007 (parent)
chain: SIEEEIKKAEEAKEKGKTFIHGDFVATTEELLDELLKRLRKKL

- Variants of: B1
- assay-comment: folding stability dG (cDNA display proteolysis); higher = more stable
- test-parameters: PBS, room temperature
# binarize folding stability dG: threshold 1 kcal/mol inclusive, high side TRUE, low side FALSE

These solved cases illustrate the format of a correct answer.
INSERT INTO measurements (mutation_name, label_value) VALUES
  ('E11V', 'FALSE'),
  ('R40S', 'FALSE'),
  ('R38S', 'FALSE');

Is the recorded value of folding stability dG equal to or greater than 1 kcal/mol for this variant? "T28G"
FALSE

Is the recorded value of folding stability dG equal to or greater than 1 kcal/mol for this variant? "E14G"
TRUE

Where do the numbers come from? From the MegaScale stability set (Tsuboyama et al. 2023).
